Test system: L1210 leukemia ip in BDF1 mice, survival T/C
Assay: NCI In Vivo Anticancer Drug Screen. Data for tumor model L1210 Leukemia (intraperitoneal) in B6D2F1 (BDF1) mice
Details: endpoint: mean survival time; dose: 50.0 mg/kg/injection; schedule: Q04DX003 (ip); vehicle: saline; higher = longer survival
Toxic doses and inconclusive results are not listed.
// values below are reported T/C

- compound: "CC(C)=NN=C(C)C"
  T/C: "102 % of control"
- compound: "CCN(CC)CCNc1ncnc2[nH]ncc12"
  T/C: "86 % of control"

Requested field: T/C. Item: NC1(CO)COC(c2ccccc2)OC1 (centres undefined) 105 % of control

Tell me the measured T/C of O=[N+]([O-])c1ccc2c(N=Nc3c(O)ccc4ccccc34)c(O)cc(S(=O)(=O)O)c2c1 , please. 98 % of control
